The origin of these recorded values is patent US9399636B2.

- tgt: DLK (Homo sapiens)
- Construct: N-terminally GST-tagged DLK (catalytic domain amino acid 1-520) (Carna Bioscience); GST (N)
- experiment: DLK TR-FRET assay
- test.context: 5 nM GST-tagged DLK (catalytic domain amino acid 1-520), 40 nM HIS-tagged MKK4 K131M substrate, 30 μM ATP, 60 minutes
pKi: −log10 of the molar value.
observation.type: pKi

Worked examples, 3 compounds total:
                                   compound                 tgt  measurement
0  CC(C)(C)OC(=O)N1CC(c2cc(Cl)nc(Nc3cc(C#N)ccn3)c2)C1 [Example 41]  DLK (Homo sapiens)         7.25
1  COC1CN(c2cc(C3CCN(C4COC4)CC3)cc(Nc3cc(C#N)ccn3)n2)C1 [Example 96]  DLK (Homo sapiens)         7.74
2  N#Cc1ccnc(Nc2cc(C3(C#N)CCOCC3)cc(N3CCCC3=O)n2)c1 [Example 47]  DLK (Homo sapiens)         7.40

A = C[C@@H]1CCCN1c1cc(C2CCN(CCO)CC2)cc(Nc2cc(C(F)(F)F)ccn2)n1 [Example 140]
B = COC1CCN(c2cc(C3CCOCC3)cc(Nc3cc(C#N)ccn3)n2)C1 (centres unmarked) [Example 101]
C = N#Cc1ccnc(Nc2cc(C3(C#N)CCOCC3)cc(N3CCC3)n2)c1 [Example 75]
D = CCc1cc(C2CCN(C(C)=O)CC2)cc(Nc2cc(C(F)F)ccn2)n1 [Example 58]
E = C[C@@H]1CCCN1c1cc(C2CCN(C3COC3)CC2)cc(Nc2cc(C(F)F)ccn2)n1 [Example 68]
stdin: # rank_down: sort by pKi, max first Form field (ranking): labels in requested order.
stdout: A, E, C, B, D

###

- tgt: DLK (Homo sapiens, UniProt Q12852)
- Construct: N-terminally GST-tagged DLK (catalytic domain amino acid 1-520) (Carna Bioscience); GST (N)
- Sequence (Q12852 1-520): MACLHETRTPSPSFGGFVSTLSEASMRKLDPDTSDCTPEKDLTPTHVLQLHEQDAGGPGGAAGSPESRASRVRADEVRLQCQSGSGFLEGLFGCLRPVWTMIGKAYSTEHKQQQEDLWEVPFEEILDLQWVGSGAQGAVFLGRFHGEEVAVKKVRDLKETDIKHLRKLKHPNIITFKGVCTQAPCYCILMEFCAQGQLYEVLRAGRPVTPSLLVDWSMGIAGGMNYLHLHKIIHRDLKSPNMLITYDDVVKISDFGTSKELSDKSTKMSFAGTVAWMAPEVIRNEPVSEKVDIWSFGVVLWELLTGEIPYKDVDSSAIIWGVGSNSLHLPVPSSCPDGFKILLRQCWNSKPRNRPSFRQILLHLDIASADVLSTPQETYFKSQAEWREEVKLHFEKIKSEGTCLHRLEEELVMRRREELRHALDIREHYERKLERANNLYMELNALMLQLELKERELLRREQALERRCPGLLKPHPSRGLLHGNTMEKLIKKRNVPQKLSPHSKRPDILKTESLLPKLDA
- experiment: DLK TR-FRET assay
- test.context: 5 nM GST-tagged DLK (catalytic domain amino acid 1-520), 40 nM HIS-tagged MKK4 K131M substrate, 30 μM ATP, 60 minutes
observation.type: Ki (nM)

Worked examples, 8 compounds total:
                                   compound  measurement
0  Cc1cc(C2(C#N)CCOCC2)cc(Nc2cc(C#N)ccn2)n1          170
1  CN1CCC(C#N)(c2cc(Nc3cc(C#N)ccn3)nc(N3CC4CC4C3)c2)CC1 (stereo not drawn)         0.17
2   Cc1ccnc(Nc2cc(C3CCNCC3)cc(N(C)CCO)n2)c1           61
3  CN1CCCC(c2cc(Nc3cc(C(F)(F)F)ccn3)nc(N3CCC(F)(F)C3)c2)C1 (stereo not drawn)         0.17
4  N#Cc1ccnc(Nc2cc(C3CCN(C4COC4)CC3)cc(Cl)n2)c1           10
5  N#Cc1ccnc(Nc2cc(C3CCN(C4COC4)CC3)cc(N3CC4CC(F)(F)C4C3)n2)c1 (stereo not drawn)          0.6
6  N#Cc1ccnc(Nc2cc(C3CCN(C4COC4)CC3)cc(N3CCC4(CCOC4)C3)n2)c1 (stereo not drawn)          7.3
7  Cc1ccnc(Nc2cc(C3CCN(S(C)(=O)=O)CC3)cc(N3CCC[C@H]3C)n2)c1           25

1 = Cc1cc(C2CCN(S(C)(=O)=O)CC2)cc(Nc2cc(C#N)ccn2)n1
2 = CCc1cc(C2CCN(C(C)=O)CC2)cc(Nc2cc(C#N)ccn2)n1
stdin: Hey, between 1 and 2 which has a smaller measured Ki? Refer to your chosen item by its label in the answer.
stdout: 2
(2: 28 nM, 1: 140 nM)

I = CC(=O)N1CCC(c2cc(C)nc(Nc3cc(C(F)F)ccn3)c2)CC1
II = CC(=O)N1CCC(c2cc(Nc3cc(C(F)F)ccn3)nc(C3CC3)c2)CC1
III = C[C@@H]1CCCN1c1cc(C2(C#N)CCNCC2)cc(Nc2cc(C#N)ccn2)n1
stdin: # rank_down: sort by Ki, max first Form field (ranking): labels in requested order.
stdout: I, II, III

a = C[C@@H]1CCCN1c1cc(C2CCOCC2)cc(Nc2cc(C(F)(F)F)ccn2)n1
b = CC(=O)N1CCC(c2cc(Cl)nc(Nc3cc(C#N)ccn3)c2)CC1
c = N#Cc1ccnc(Nc2cc(C3(C#N)CCNCC3)cc(N3CC4CC4C3)n2)c1 (stereo not drawn)
d = N#CC1(c2cc(Nc3cc(C(F)F)ccn3)nc(N3CCCC3=O)c2)CCOCC1
e = FC(F)c1ccnc(Nc2cc(C3CN(CC(F)(F)F)C3)cc(Cl)n2)c1
stdin: Ascending by Ki, please: list the compounds accordingly. Form field (ranking): labels in requested order.
stdout: c, a, d, b, e

###

- tgt: DLK (Homo sapiens, UniProt Q12852)
- Construct: N-terminally GST-tagged DLK (catalytic domain amino acid 1-520) (Carna Bioscience); GST (N)
- experiment: DLK TR-FRET assay
- test.context: 5 nM GST-tagged DLK (catalytic domain amino acid 1-520), 40 nM HIS-tagged MKK4 K131M substrate, 30 μM ATP, 60 minutes
observation.type: Ki (nM)

In [3]: df
Out[3]:
                                   molecule                                 tgt  observation_type  measurement
0  FC(F)c1ccnc(Nc2cc(C3CCN(C4COC4)CC3)cc(N3CC4CC4C3)n2)c1 (stereo not shown)  DLK (Homo sapiens, UniProt Q12852)                Ki            1
1  N#Cc1ccnc(Nc2cc(C3CCOCC3)cc(N3CCC4CC43)n2)c1 (stereo not shown)  DLK (Homo sapiens, UniProt Q12852)                Ki          4.6
2  CC1CCCN1c1cc(C2CCN(C(=O)c3cn(C)cn3)C2)cc(Nc2cc(C(F)(F)F)ccn2)n1 (stereo not shown)  DLK (Homo sapiens, UniProt Q12852)                Ki         0.66
3  C[C@@H]1CCCN1c1cc(C2(C#N)CCN(C3COC3)CC2)cc(Nc2cc(C#N)ccn2)n1  DLK (Homo sapiens, UniProt Q12852)                Ki         0.17
4  N#Cc1ccnc(Nc2cc(C3CCN(C4COC4)CC3)cc(N3CC4(COC4)C3)n2)c1  DLK (Homo sapiens, UniProt Q12852)                Ki         42.2
5  N#CC1(c2cc(Cl)nc(Nc3cc(C(F)F)ccn3)c2)CCOCC1  DLK (Homo sapiens, UniProt Q12852)                Ki           43
6  N#Cc1ccnc(Nc2cc(C3(C#N)CCOCC3)cc(C3CC3)n2)c1  DLK (Homo sapiens, UniProt Q12852)                Ki          8.6
7  N#Cc1ccnc(Nc2cc(C3CCOCC3)cc(N3CCC4(CCOC4)C3)n2)c1 (stereo not shown)  DLK (Homo sapiens, UniProt Q12852)                Ki           15
8  Cc1ccnc(Nc2cc(C3CCN(C4COC4)CC3)cc(N3CCC[C@H]3C)n2)c1  DLK (Homo sapiens, UniProt Q12852)                Ki           21
9  CCCCOc1cc(C2CCN(C3COC3)CC2)cc(Nc2cc(C(F)F)ccn2)n1  DLK (Homo sapiens, UniProt Q12852)                Ki          3.8

a = CC(=O)N1CCC(c2cc(Nc3cc(C(F)(F)F)ccn3)nc(N3CCC(F)(F)C3)c2)CC1
b = Cc1cc(C2CCN(C3COC3)CC2)cc(Nc2cc(C#N)ccn2)n1
c = CC(=O)N1CCC(c2cc(Nc3cc(C#N)ccn3)nc(OC(C)C)c2)CC1
d = N#Cc1ccnc(Nc2cc(C3CN(CC(F)(F)F)C3)cc(Cl)n2)c1
e = FC(F)c1ccnc(Nc2cc(C3CCN(C4COC4)CC3)cc(N3CCC(F)(F)C3)n2)c1
stdin: Ascending by Ki, please: list the molecules accordingly. Form field (ranking): labels in requested order.
stdout: e, a, c, b, d
(e: 0.36 nM, a: 1.2 nM, c: 2.2 nM, b: 93 nM, d: 220 nM)

I = Cc1cc(C2CCN(C3COC3)CC2)cc(Nc2cc(C(F)F)ccn2)n1
II = CC1CCCN1c1cc(C2CCN(S(C)(=O)=O)C2)cc(Nc2cc(C(F)(F)F)ccn2)n1 (stereo not shown)
III = CCc1cc(C2CCN(C3COC3)CC2)cc(Nc2cc(C#N)ccn2)n1
IV = Cc1cc(C2CCOCC2)cc(Nc2cc(C#N)ccn2)n1
V = O=C1CCCN1c1cc(C2CCN(C3COC3)CC2)cc(Nc2cc(C(F)F)ccn2)n1
stdin: Ascending by Ki, please: list the molecules accordingly. Form field (ranking): labels in requested order.
stdout: II, V, III, IV, I
(II: 2.12 nM, V: 6.4 nM, III: 18 nM, IV: 58 nM, I: 100 nM)

P = N#Cc1ccnc(Nc2cc(C3CCOCC3)cc(N3CC4(COC4)C3)n2)c1
Q = C[C@@H]1CCCN1c1cc(C2(C#N)CCN(C)CC2)cc(Nc2cc(C#N)ccn2)n1
stdin: Hey, between P and Q which has a smaller measured Ki? Refer to your chosen item by its label in the answer.
stdout: Q
(Q: 0.17 nM, P: 100 nM)

A = N#Cc1ccnc(Nc2cc(C3CCOCC3)cc(N3CC4(CCOC4)C3)n2)c1
B = COC1CN(c2cc(C3(C#N)CCOCC3)cc(Nc3cc(C(F)F)ccn3)n2)C1
C = N#Cc1ccnc(Nc2cc(C3CCOCC3)cc(N3CC(F)(F)C3)n2)c1
D = CS(=O)(=O)N1CC(c2cc(Nc3cc(C(F)(F)F)ccn3)nc(N3CCC(F)(F)C3)c2)C1
stdin: Ascending by Ki, please: list the molecules accordingly. Form field (ranking): labels in requested order.
stdout: D, C, B, A
(D: 6.6 nM, C: 12.6 nM, B: 21 nM, A: 88 nM)

a = N#Cc1ccnc(Nc2cc(C3CCOCC3)cc(N3CC(F)C3)n2)c1
b = O=C([C@@H]1CCCCN1)N1CCC(c2ccnc(Nc3ccccn3)c2)CC1
stdin: Between a and b , whose measured Ki reads higher? Refer to your chosen item by its label in the answer.
stdout: b

P = N#Cc1ccnc(Nc2cc(C3(C#N)CCN(C4COC4)CC3)cc(N3CC4CC4C3)n2)c1 (stereo not shown)
Q = C[C@@H]1CCCN1c1cc(C2(C#N)CCOCC2)cc(Nc2cc(C#N)ccn2)n1
R = FC1CN(c2cc(C3CCN(C4COC4)CC3)cc(Nc3cc(C(F)F)ccn3)n2)C1
S = N#CC1(c2cc(Nc3cc(C(F)F)ccn3)nc(N3CCC(F)(F)C3)c2)CCOCC1
stdin: Ascending by Ki, please: list the molecules accordingly. Form field (ranking): labels in requested order.
stdout: Q, P, S, R
(Q: 0.2 nM, P: 0.8 nM, S: 2.1 nM, R: 6.8 nM)

P = N#Cc1ccnc(Nc2cc(C3CCN(C4COC4)CC3)cc(N3CCC4CC43)n2)c1 (stereo not shown)
Q = N#Cc1ccnc(Nc2cc(C3CCOCC3)cc(N3CC4CC4C3)n2)c1 (stereo not shown)
stdin: Between P and Q , whose measured Ki reads higher? Refer to your chosen item by its label in the answer.
stdout: Q
(Q: 1.6 nM, P: 0.9 nM)
